Test system: ATP;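 also: ATP exposure 15 min at 22 °C before imaging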
METHOD NOTES: switch fluorescence ratio, 500 uM ATP over buffer (Cy3 cluster intensity, sum of 5 cycles each) (fold (ratio)); higher = stronger signal-on switching upon ATP binding; sequences stand for … in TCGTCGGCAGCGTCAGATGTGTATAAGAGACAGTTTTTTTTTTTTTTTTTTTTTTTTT…TC
DETAILS: aptamer strand: ATP DNA aptamer (quencher-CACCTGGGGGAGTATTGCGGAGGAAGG + anchor), 100 nM annealed; ATP concentration: 500 uM
TEST READOUT: switch fluorescence ratio
One number for each entry.

# example entries with known answers
>  <CHAIN>
TTAAAATATA

>  <TEST READOUT>
switch fluorescence ratio

>  <READOUT NUMBER>
0.984

$$$$
>  <CHAIN>
CATAATTTTT

>  <TEST READOUT>
switch fluorescence ratio

>  <READOUT NUMBER>
0.991

$$$$
>  <CHAIN>
CCATAACTTA

>  <TEST READOUT>
switch fluorescence ratio

>  <READOUT NUMBER>
0.978

$$$$
>  <CHAIN>
TATCGATGTT

>  <TEST READOUT>
switch fluorescence ratio

>  <READOUT NUMBER>
1.01

$$$$
>  <CHAIN>
AATAGGCACC

>  <TEST READOUT>
switch fluorescence ratio

>  <READOUT NUMBER>
0.993

$$$$

Could you tell me switch fluorescence ratio for each of these sequences? They are listed below.
1. GCTTGCAAAG
2. GTGTTATTGA
3. AAAGGACGAG

Result:
1: 1.01; 2: 0.972; 3: 0.983

###

Hi there, I'd appreciate the recorded switch fluorescence ratio for every entry that follows.
System: ATP;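 also: ATP exposure 15 min at 22 °C before imaging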
METHOD NOTES: switch fluorescence ratio, 500 uM ATP over buffer (Cy3 cluster intensity, sum of 5 cycles each) (fold (ratio)); higher = stronger signal-on switching upon ATP binding; sequences stand for … in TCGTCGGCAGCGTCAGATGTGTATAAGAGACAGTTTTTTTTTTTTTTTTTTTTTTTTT…TC
DETAILS: aptamer strand: ATP DNA aptamer (quencher-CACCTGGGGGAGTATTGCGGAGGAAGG + anchor), 100 nM annealed; ATP concentration: 500 uM
Answers are plain numbers.

>  <CHAIN>
TTTAACTCTG

>  <switch fluorescence ratio>
1

$$$$

Hi! Can you tell me switch fluorescence ratio for each of these sequences?
1. ACGTTAGGTC
2. TCGCGGGTGG
3. ACAGTTGTAT
4. ACAGGGATCA
5. TTTGGGTTAT

Result:
1: 1.04; 2: 1.03; 3: 1.01; 4: 0.981; 5: 1.08

For each of the sequences below, state switch fluorescence ratio.
1. GGAAGGAGGG
2. GGAAGCGACA
3. GACCTTAATG
4. GCTCCTAGCT
5. CTTAGGGAGA

Result:
1. 1
2. 0.988
3. 1.05
4. 1.07
5. 1

Would you mind listing switch fluorescence ratio for each of the following sequences?
1. GCATATTTTG
2. GGGGTGGAAA

Result:
1. 0.994
2. 0.979

I have 2 sequences here; please give me switch fluorescence ratio for each one.
1. GTTAGACTCA
2. AGTTGAACCA

Result:
1.01
1

###

Can you tell me switch fluorescence ratio for the items I'm about to list?
Tested on: ATP;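 also: ATP exposure 15 min at 22 °C before imaging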
METHOD NOTES: switch fluorescence ratio, 500 uM ATP over buffer (Cy3 cluster intensity, sum of 5 cycles each) (fold (ratio)); higher = stronger signal-on switching upon ATP binding; sequences stand for … in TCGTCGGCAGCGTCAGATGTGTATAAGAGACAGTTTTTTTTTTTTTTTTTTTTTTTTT…TC
DETAILS: aptamer strand: ATP DNA aptamer (quencher-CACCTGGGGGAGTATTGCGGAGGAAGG + anchor), 100 nM annealed; ATP concentration: 500 uM
One number for each entry.

Recorded results for 5 sequences are shown here.
>  <CHAIN>
AATTCGTGAA

>  <READOUT NUMBER>
1.01

$$$$
>  <CHAIN>
AACATTGTGG

>  <READOUT NUMBER>
1.02

$$$$
>  <CHAIN>
AATCGGCGGG

>  <READOUT NUMBER>
0.975

$$$$
>  <CHAIN>
ATTGTAAAGC

>  <READOUT NUMBER>
0.994

$$$$
>  <CHAIN>
CGGGTTCTAT

>  <READOUT NUMBER>
0.977

$$$$

// for each sequence below, give its switch fluorescence ratio
1. TTCTATATGT
2. TTTTTTGGCG
3. GAAAATTGGG

Result:
0.977
1.02
0.983

Below are 4 sequences. Give each one its switch fluorescence ratio.
1. TCAGGCCCGT
2. TTGATGGGTA
3. TGTGGGGGTT
4. CTTAGTGAAA

Result:
1. 1.01
2. 1.01
3. 0.986
4. 0.988

Each sequence below has a recorded value; state its switch fluorescence ratio.
1. TTGGGGGTCC
2. TTTTAGGCAT
3. GGTTTCTCCG
4. TCAACCGGGA

Result:
1: 1.02; 2: 1.01; 3: 1.46; 4: 1.06
